Assay: Approximate solubility by stepwise dilution in solvents and solvent mixtures
Assay type: physicochemical
Settings: dimethylformamide, 22 °C, organic solvent or mixture, thermodynamic from solid, dimethylformamide, about 22° C., read-out: Solubility S
Method: Approximate solubilities were determined by a stepwise dilution of a suspension of about 10 mg of substance in 0.05 mL of solvent. If the substance was not dissolved by addition of a total of at least 10 ml solvent, the solubility was indicated as <1 mg/mL. […] The approximate solubility of crystalline, monohydrate Form MH of NYX-2925 across a range of solvents and solvent mixtures (expressed in volume ratios measured at about 22° C.) is provided in Table 8, below.
MEASURE: solubility

MOLECULE	RECORDED_RESULT
CC(C)C(=O)N1CCC[C@]12CN([C@H](C(N)=O)[C@@H](C)O)C2=O [Form MH]	> 200 mg/mL

###

Test: Approximate solubility by stepwise dilution in solvents and solvent mixtures
Assay type: physicochemical
Settings: toluene, 22 °C, organic solvent or mixture, thermodynamic from solid, toluene, about 22° C., read-out: Solubility S
Method: Approximate solubilities were determined by a stepwise dilution of a suspension of about 10 mg of substance in 0.05 mL of solvent. If the substance was not dissolved by addition of a total of at least 10 ml solvent, the solubility was indicated as <1 mg/mL. […] The approximate solubility of crystalline, monohydrate Form MH of NYX-2925 across a range of solvents and solvent mixtures (expressed in volume ratios measured at about 22° C.) is provided in Table 8, below.

MOLECULE	solubility
CC(C)C(=O)N1CCC[C@]12CN([C@H](C(N)=O)[C@@H](C)O)C2=O [Form MH]	< 1000 µg/mL

###

Assay: Approximate solubility by stepwise dilution in solvents and solvent mixtures
Type: physicochemical
Conditions: tert-butyl methyl ether saturated with water, 22 °C, organic solvent or mixture, thermodynamic from solid, tert-butyl methyl ether saturated with water, about 22° C., read-out: Solubility S

MOLECULE	solubility
CC(C)C(=O)N1CCC[C@]12CN([C@H](C(N)=O)[C@@H](C)O)C2=O [Form MH]	< 1000 µg/mL

###

Experiment: Solubility and stability of saturated solutions in pH 2-8 buffers at 25° C. (HPLC)
Type: physicochemical
Details: aqueous buffer, pH 5, aqueous buffer, thermodynamic from solid; pH of about 5; ca. 25° C.; after about 4 days; read-out: solubility in an aqueous solvent
MEASURE: solubility at 4 days

COMPOUND	MEASURE	RECORDED_RESULT
CC(C)C(=O)N1CCC[C@]12CN([C@H](C(N)=O)[C@@H](C)O)C2=O [Form MH]	solubility at 4 days	~53.2 mg/mL

###

Test: Approximate solubility by stepwise dilution in solvents and solvent mixtures
Type: physicochemical
Conditions: 1/1 ethanol/water (v/v), 22 °C, aqueous with cosolvent or surfactant or cyclodextrin, thermodynamic from solid, 1/1 ethanol/water (volume ratio), about 22° C., read-out: Solubility S
MEASURE: solubility

MOLECULE	RECORDED_RESULT
CC(C)C(=O)N1CCC[C@]12CN([C@H](C(N)=O)[C@@H](C)O)C2=O [Form MH]	69 to 103 mg/mL

###

Assay: Solubility and stability of saturated solutions in pH 2-8 buffers at 25° C. (HPLC)
Format: physicochemical
Conditions: aqueous buffer, pH 3, aqueous buffer, thermodynamic from solid; pH of about 3; ca. 25° C.; after about 4 days; read-out: solubility in an aqueous solvent

COMPOUND	solubility at 4 days
CC(C)C(=O)N1CCC[C@]12CN([C@H](C(N)=O)[C@@H](C)O)C2=O [Form MH]	~53.2 mg/mL

###

Test: Approximate solubility by stepwise dilution in solvents and solvent mixtures
Format: physicochemical
Conditions: 1,4-dioxane, 22 °C, organic solvent or mixture, thermodynamic from solid, 1,4-dioxane, about 22° C., read-out: Solubility S
MEASURE: solubility

MOLECULE	RECORDED_RESULT
CC(C)C(=O)N1CCC[C@]12CN([C@H](C(N)=O)[C@@H](C)O)C2=O [Form MH]	28 to 31 mg/mL

###

Assay: Solubility of anhydrous crystalline forms in water and isopropyl acetate at room temperature
Assay type: physicochemical
Details: isopropyl acetate, organic solvent or mixture, after 10 minutes, 1 hour, and 6 hours at room temperature; read-out: solubility in isopropyl acetate

COMPOUND	solubility
CC(C)C(=O)N1CCCC12CN(C(C(N)=O)C(C)O)C2=O (stereo not shown) [Form B]	~9000 µg/mL

###

Assay: Solubility and stability of saturated solutions in pH 2-8 buffers at 25° C. (HPLC)
Assay type: physicochemical
Details: pH 2, pH 3, pH 5, pH 7 and pH 8 buffers, aqueous buffer, thermodynamic from solid; pH ranges of 2-8; 25° C.; after 7 days; read-out: saturated concentration in buffers

MOLECULE	solubility thermodynamic at 7 days
CC(C)C(=O)N1CCC[C@]12CN([C@H](C(N)=O)[C@@H](C)O)C2=O [Form MH]	~50 mg/mL

###

Assay: Solubility of anhydrous crystalline forms in water and isopropyl acetate at room temperature
Type: physicochemical
Conditions: isopropyl acetate, 22 °C, organic solvent or mixture, room temperature (about 22° C.); read-out: solubility in isopropyl acetate
MEASURE: solubility

COMPOUND	RECORDED_RESULT
CC(C)C(=O)N1CCCC12CN(C(C(N)=O)C(C)O)C2=O (stereo not shown) [Form A]	~8000 µg/mL

###

Experiment: Approximate solubility by stepwise dilution in solvents and solvent mixtures
Assay type: physicochemical
Conditions: methanol, 22 °C, organic solvent or mixture, thermodynamic from solid, methanol, about 22° C., read-out: Solubility S
MEASURE: solubility

MOLECULE	RECORDED_RESULT
CC(C)C(=O)N1CCC[C@]12CN([C@H](C(N)=O)[C@@H](C)O)C2=O [Form MH]	> 200 mg/mL

###

Assay: Approximate solubility by stepwise dilution in solvents and solvent mixtures
Format: physicochemical
Details: water, 22 °C, water, thermodynamic from solid, water, about 22° C., read-out: Solubility S

MOLECULE	solubility
CC(C)C(=O)N1CCC[C@]12CN([C@H](C(N)=O)[C@@H](C)O)C2=O [Form MH]	26 to 30 mg/mL

###

Assay: Solubility of anhydrous crystalline forms in water and isopropyl acetate at room temperature
Type: physicochemical
Conditions: water, after 6 hours at room temperature
MEASURE: solubility at 6 h

COMPOUND	MEASURE	RECORDED_RESULT
CC(C)C(=O)N1CCCC12CN(C(C(N)=O)C(C)O)C2=O (stereo not shown) [Form B]	solubility at 6 h	~48 mg/mL

###

Test: Approximate solubility by stepwise dilution in solvents and solvent mixtures
Type: physicochemical
Details: 1/1 dichloromethane/methanol (v/v), 22 °C, organic solvent or mixture, thermodynamic from solid, 1/1 dichloromethane/methanol (volume ratio), about 22° C., read-out: Solubility S
Method: Approximate solubilities were determined by a stepwise dilution of a suspension of about 10 mg of substance in 0.05 mL of solvent. If the substance was not dissolved by addition of a total of at least 10 ml solvent, the solubility was indicated as <1 mg/mL. […] The approximate solubility of crystalline, monohydrate Form MH of NYX-2925 across a range of solvents and solvent mixtures (expressed in volume ratios measured at about 22° C.) is provided in Table 8, below.

MOLECULE	solubility
CC(C)C(=O)N1CCC[C@]12CN([C@H](C(N)=O)[C@@H](C)O)C2=O [Form MH]	> 200 mg/mL

###

Assay: Solubility and stability of saturated solutions in pH 2-8 buffers at 25° C. (HPLC)
Assay type: physicochemical
Conditions: aqueous buffer, pH 2, aqueous buffer, thermodynamic from solid; pH of about 2; ca. 25° C.; after about 7 days; read-out: solubility in an aqueous solvent
MEASURE: solubility at 7 days

COMPOUND	MEASURE	RECORDED_RESULT
CC(C)C(=O)N1CCC[C@]12CN([C@H](C(N)=O)[C@@H](C)O)C2=O [Form MH]	solubility at 7 days	~53.5 mg/mL

###

Assay: Solubility of anhydrous crystalline forms in water and isopropyl acetate at room temperature
Format: physicochemical
Conditions: water, after 10 minutes at room temperature

COMPOUND	solubility at 10 min
CC(C)C(=O)N1CCCC12CN(C(C(N)=O)C(C)O)C2=O (stereo not shown) [Form B]	~54 mg/mL

###

Experiment: Approximate solubility by stepwise dilution in solvents and solvent mixtures
Assay type: physicochemical
Settings: tert-butyl methyl ether, 22 °C, organic solvent or mixture, thermodynamic from solid, tert-butyl methyl ether, about 22° C., read-out: Solubility S
MEASURE: solubility

COMPOUND	RECORDED_RESULT
CC(C)C(=O)N1CCC[C@]12CN([C@H](C(N)=O)[C@@H](C)O)C2=O [Form MH]	< 1000 µg/mL

###

Assay: Approximate solubility by stepwise dilution in solvents and solvent mixtures
Type: physicochemical
Settings: acetonitrile, 22 °C, organic solvent or mixture, thermodynamic from solid, acetonitrile, about 22° C., read-out: Solubility S

COMPOUND	solubility
CC(C)C(=O)N1CCC[C@]12CN([C@H](C(N)=O)[C@@H](C)O)C2=O [Form MH]	118 to 230 mg/mL

Entry source: patent US12012413B2
